- TEST: Volume of distribution at steady state in fasted Beagle dog at 2 mg/kg, iv measured for 24 hrs by LC-MS analysis
- Type: ADME, organism-based, Canis lupus familiaris
- MEASUREMENT CONTEXT: in vivo, read-out: Vdss
OUTCOME MEASURE: Vd (L/kg)
# number only, unit L/kg dropped from output

// query So what's the measured Vd for this one? C[C@@H](COCCC(=O)N1CCN(c2ncc(C(F)(F)F)cn2)CC1)Nc1cn[nH]c(=O)c1C(F)(F)F
// result 1.7

// query Given O=C(CCOC[C@@H]1CCN1c1cn[nH]c(=O)c1C(F)(F)F)N1CCN2c3ncc(C(F)(F)F)cc3OC[C@@H]2C1 , state its recorded Vd.
// result 0.948

Cited source: ChEMBL document CHEMBL5634130
